test system: Ba/F3-NRAS-G12V cells; assay: Anti-proliferation assay (CellTiter Glo) on Ba/F3-NRAS-G12V; type: cell-based; conditions: Mus musculus, BaF3; 72 h treatment; average with SD (n = 3, duplicate)

{"COMPOUND": "Cc1ccc(NC(=O)c2cccc(C(F)(F)F)c2)cc1N1Cc2cnc(Nc3cnn(C4CCN(S(C)(=O)=O)CC4)c3)nc2N(C)C1=O [SIJ1772]", "GI50 (nM)": 96}
{"COMPOUND": "CCN1CCN(c2ccc(Nc3ncc4c(n3)N(C)C(=O)N(c3cc(NC(=O)c5cccc(C(F)(F)F)c5)ccc3C)C4)cc2)CC1 [Compound 4]", "GI50 (nM)": 213}
{"COMPOUND": "Cc1ccc(NC(=O)c2cccc(C(F)(F)F)c2)cc1N1Cc2cnc(Nc3ccc(N4CCOCC4)cc3)nc2N(C)C1=O [Compound 3]", "GI50 (nM)": 134}
{"COMPOUND": "COCCn1cc(Nc2ncc3c(n2)N(C)C(=O)N(c2cc(NC(=O)c4cccc(C(F)(F)F)c4)ccc2C)C3)cn1 [Compound 12]", "GI50 (nM)": 216}
{"COMPOUND": "COc1cc(N2CCOCC2)ccc1Nc1ncc2c(n1)N(C)C(=O)N(c1cc(NC(=O)c3cccc(C(F)(F)F)c3)ccc1C)C2 [Compound 7]", "GI50 (nM)": 429}
{"COMPOUND": "Cc1ccc(NC(=O)c2cccc(C(F)(F)F)c2)cc1N1Cc2cnc(Nc3ccn(C)n3)nc2N(C)C1=O [Compound 11]", "GI50 (nM)": 259}

====

test system: MDA-MB-468 (KRAS, NRAS-wt); assay: Anti-proliferation assay on MDA-MB-468; assay type: cell-based; details: Homo sapiens, MDA-MB-468; 72 h treatment; average with SD (n = 3, duplicate)

{"COMPOUND": "Cc1ccc(NC(=O)c2cccc(C(F)(F)F)c2)cc1N1Cc2cnc(Nc3cnn(C)c3)nc2N(C)C1=O", "GI50": "> 50 µM"}
{"COMPOUND": "CCN1CCN(c2ccc(Nc3ncc4c(n3)N(C)C(=O)N(c3cc(NC(=O)c5cccc(C(F)(F)F)c5)ccc3C)C4)c(C(F)(F)F)c2)CC1", "GI50": "> 50 µM"}
{"COMPOUND": "Cc1ccc(NC(=O)c2cccc(C(F)(F)F)c2)cc1N1Cc2cnc(Nc3ccc(N4CCCCC4)cc3)nc2N(C)C1=O", "GI50": "> 50 µM"}
{"COMPOUND": "COCCn1cc(Nc2ncc3c(n2)N(C)C(=O)N(c2cc(NC(=O)c4cccc(C(F)(F)F)c4)ccc2C)C3)cn1", "GI50": "> 50 µM"}
{"COMPOUND": "Cc1ccc(NC(=O)c2cccc(C(F)(F)F)c2)cc1N1Cc2cnc(NCCCN3CCOCC3)nc2N(C)C1=O", "GI50": "> 50 µM"}
{"COMPOUND": "CCN1CCC(n2cc(Nc3ncc4c(n3)N(C)C(=O)N(c3cc(NC(=O)c5cccc(C(F)(F)F)c5)ccc3C)C4)cn2)CC1", "GI50": "16.2 µM"}

====

test system: SW480 (KRAS-G12V); assay: Anti-proliferation assay on SW480; type: cell-based; details: Homo sapiens, SW480; 72 h treatment; average with SD (n = 3, duplicate)
# note: exactly 400 nM is not below, so it is false (0); use true (1) for GI50 strictly under it

{"COMPOUND": "CCN1CCN(c2cccc(Nc3ncc4c(n3)N(C)C(=O)N(c3cc(NC(=O)c5cccc(C(F)(F)F)c5)ccc3C)C4)c2)CC1", "QUALITATIVE_LABEL": "true (1)"}
{"COMPOUND": "Cc1ccc(NC(=O)c2cccc(C(F)(F)F)c2)cc1N1Cc2cnc(Nc3ccc(N4CCOCC4)cc3)nc2N(C)C1=O", "QUALITATIVE_LABEL": "true (1)"}
{"COMPOUND": "CCN1CCN(c2ccc(Nc3ncc4c(n3)N(C)C(=O)N(c3cc(NC(=O)c5cccc(C(F)(F)F)c5)ccc3C)C4)cc2)CC1", "QUALITATIVE_LABEL": "true (1)"}
{"COMPOUND": "COc1cc(N2CCOCC2)ccc1Nc1ncc2c(n1)N(C)C(=O)N(c1cc(NC(=O)c3cccc(C(F)(F)F)c3)ccc1C)C2", "QUALITATIVE_LABEL": "false (0)"}
{"COMPOUND": "COCCn1cc(Nc2ncc3c(n2)N(C)C(=O)N(c2cc(NC(=O)c4cccc(C(F)(F)F)c4)ccc2C)C3)cn1", "QUALITATIVE_LABEL": "false (0)"}
{"COMPOUND": "Cc1ccc(NC(=O)c2cccc(C(F)(F)F)c2)cc1N1Cc2cnc(NCCCN3CCOCC3)nc2N(C)C1=O", "QUALITATIVE_LABEL": "false (0)"}
{"COMPOUND": "Cc1ccc(NC(=O)c2cccc(C(F)(F)F)c2)cc1N1Cc2cnc(Nc3ccn(C)n3)nc2N(C)C1=O", "QUALITATIVE_LABEL": "true (1)"}
{"COMPOUND": "Cc1ccc(NC(=O)c2cccc(C(F)(F)F)c2)cc1N1Cc2cnc(Nc3ccc(N4CCCCC4)cc3)nc2N(C)C1=O", "QUALITATIVE_LABEL": "false (0)"}
{"COMPOUND": "Cc1ccc(NC(=O)c2cccc(C(F)(F)F)c2)cc1N1Cc2cnc(Nc3ccc(N4CCC(O)CC4)cc3)nc2N(C)C1=O", "QUALITATIVE_LABEL": "true (1)"}
